tgt: COX-2 (Homo sapiens, UniProt P35354)
Sequence (P35354 18-604): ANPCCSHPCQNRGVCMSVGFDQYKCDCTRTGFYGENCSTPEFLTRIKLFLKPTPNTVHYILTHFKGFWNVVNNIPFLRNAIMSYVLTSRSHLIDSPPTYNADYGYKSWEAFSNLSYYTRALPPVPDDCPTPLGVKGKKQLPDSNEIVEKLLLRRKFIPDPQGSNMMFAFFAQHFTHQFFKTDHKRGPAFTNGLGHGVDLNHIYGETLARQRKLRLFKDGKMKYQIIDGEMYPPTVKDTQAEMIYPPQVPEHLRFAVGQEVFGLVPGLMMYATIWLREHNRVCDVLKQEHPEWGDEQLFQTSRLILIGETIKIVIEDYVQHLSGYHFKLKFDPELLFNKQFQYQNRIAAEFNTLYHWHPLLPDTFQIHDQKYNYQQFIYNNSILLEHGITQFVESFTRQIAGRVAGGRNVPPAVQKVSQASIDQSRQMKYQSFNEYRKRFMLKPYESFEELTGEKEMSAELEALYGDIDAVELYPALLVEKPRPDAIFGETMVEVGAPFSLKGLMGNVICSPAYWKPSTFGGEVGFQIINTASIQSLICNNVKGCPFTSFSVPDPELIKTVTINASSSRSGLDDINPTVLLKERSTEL
test_details: COX-2 enzyme activity in human whole blood (LPS induced, thromboxane B2 EIA)
Format: cell-based
Parameters: Human blood (≈50 mL) from male or female donors who had not received any aspirin or NSAIDs for 14 days; endogenous in cells; host or cells: human whole blood from donors, LPS-induced
assay_context: test compound at 10 μM
Experimental: Human blood (≈50 mL) from male or female donors who had not received any aspirin or NSAIDs for 14 days was collected at two local area blood donor centers and placed in polypropylene syringes containing sodium heparin (20 units per mL blood, final concentration). The blood was transported to the laboratory on ice packs and used within 1.5 hours of collection. […]
endpoint_name: inhibition at 10 µM (%)
Enter your answer as a number in %; do not include the unit.

Would you please look over these solved cases?
CS(=O)(=O)c1ccc(-c2ccccc2C=C2CCCCC2)cc1 [Example 24e] ... 90
CS(=O)(=O)c1ccc(-c2cc3c(cc2Cc2cc(F)cc(F)c2)OCC(C(=O)NCCO)O3)cc1 (stereo not shown) [Example 18c] ... 40
CS(=O)(=O)c1ccc(-c2cc3c(cc2C(=O)c2cc(F)cc(F)c2)OCCO3)cc1 ... 55

Next item in the queue.
Answer with reported inhibition at 10 µM of CS(=O)(=O)c1ccc(-c2ccccc2C(=O)c2cccc(F)c2)cc1 [Example 25c]
40

Sourced from patent US6825185B2
